These entries and their values trace back to patent US10398751B2.

test: Pharmacokinetics of IR formulations in minipigs; type: in vivo; settings: minipig, plasma, sc, 0.4 mg/kg, IR, SC, 0.4 mg/Kg; HPB:PEP 15:1 saline; read-out: Minipigs absolute BA (F %)
reported-metric: bioavailability (%)
Give bare numbers, in %.

Form field: reported bioavailability of C[C@@H](O)[C@@H]1NC(=O)[C@H](CCCCN)NC(=O)[C@@H](Cc2c[nH]c3ccccc23)NC(=O)[C@H](Cc2c[nH]c3ccccc23)NC(=O)[C@H](Cc2ccccc2)NC(=O)CCCNC(=O)CCCN(CC(N)=O)C(=O)[C@H](Cc2ccccc2)NC1=O [Veldoreotide]
85.3

* * *

assay: Solubility screening of veldoreotide acetate (10 mg, incremental volumes of medium, USP definition); assay type: physicochemical; conditions: 2% propylene glycol in olive oil (or cottonseed oil), 0.1 ml Freely soluble (0.1 g/ml), 10 mg in 2% Propylene glycol in olive oil (or cottonseed oil)
reported-metric: solubility

Form field: reported solubility of C[C@@H](O)[C@@H]1NC(=O)[C@H](CCCCN)NC(=O)[C@@H](Cc2c[nH]c3ccccc23)NC(=O)[C@H](Cc2c[nH]c3ccccc23)NC(=O)[C@H](Cc2ccccc2)NC(=O)CCCNC(=O)CCCN(CC(N)=O)C(=O)[C@H](Cc2ccccc2)NC1=O [Veldoreotide Acetate]
< 100 mg/mL

* * *

test: Solubility screening of veldoreotide acetate (10 mg, incremental volumes of medium, USP definition); type: physicochemical; conditions: glycerol, 10 mg in Glycerol; read-out: 0.5 ml Soluble (0.02 g/ml; 20 mg/ml)
reported-metric: solubility

Form field: reported solubility of C[C@@H](O)[C@@H]1NC(=O)[C@H](CCCCN)NC(=O)[C@@H](Cc2c[nH]c3ccccc23)NC(=O)[C@H](Cc2c[nH]c3ccccc23)NC(=O)[C@H](Cc2ccccc2)NC(=O)CCCNC(=O)CCCN(CC(N)=O)C(=O)[C@H](Cc2ccccc2)NC1=O [Veldoreotide Acetate]
> 20 mg/mL

* * *

assay: Solubility screening of veldoreotide acetate (10 mg, incremental volumes of medium, USP definition); assay type: physicochemical; settings: 2% propylene glycol in olive oil (or cottonseed oil), 10 mg in 2% Propylene glycol in olive oil (or cottonseed oil); read-out: 0.5 ml Soluble (0.02 g/ml; 20 mg/ml)
reported-metric: solubility

Form field: reported solubility of C[C@@H](O)[C@@H]1NC(=O)[C@H](CCCCN)NC(=O)[C@@H](Cc2c[nH]c3ccccc23)NC(=O)[C@H](Cc2c[nH]c3ccccc23)NC(=O)[C@H](Cc2ccccc2)NC(=O)CCCNC(=O)CCCN(CC(N)=O)C(=O)[C@H](Cc2ccccc2)NC1=O [Veldoreotide Acetate]
< 20 mg/mL

* * *

assay: Solubility screening of veldoreotide acetate (10 mg, incremental volumes of medium, USP definition); type: physicochemical; details: caprylic acid, 10 mg in Caprylic acid; read-out: 0.01 ml Very soluble (1 g/ml)
reported-metric: solubility

Form field: reported solubility of C[C@@H](O)[C@@H]1NC(=O)[C@H](CCCCN)NC(=O)[C@@H](Cc2c[nH]c3ccccc23)NC(=O)[C@H](Cc2c[nH]c3ccccc23)NC(=O)[C@H](Cc2ccccc2)NC(=O)CCCNC(=O)CCCN(CC(N)=O)C(=O)[C@H](Cc2ccccc2)NC1=O [Veldoreotide Acetate]
< 1000 mg/mL

* * *

assay: Solubility screening of veldoreotide acetate (10 mg, incremental volumes of medium, USP definition); format: physicochemical; details: Saline (USP) (0.9% NaCl), pH 4.5, 0.1 ml Freely soluble (0.1 g/ml), 10 mg in Saline (USP) (0.9% NaCl) pH 4.5
reported-metric: solubility

Form field: reported solubility of C[C@@H](O)[C@@H]1NC(=O)[C@H](CCCCN)NC(=O)[C@@H](Cc2c[nH]c3ccccc23)NC(=O)[C@H](Cc2c[nH]c3ccccc23)NC(=O)[C@H](Cc2ccccc2)NC(=O)CCCNC(=O)CCCN(CC(N)=O)C(=O)[C@H](Cc2ccccc2)NC1=O [Veldoreotide Acetate]
< 100 mg/mL
